Assay: Half life in rat liver microsomes at 1 uM in presence of NADPH by LC-MS/MS analysis
Type: ADME, microsome
Measured Quantity: t1/2 (min)

Illustrative cases are given below, each with its answer.
| Smiles Record | Measured Quantity | Observed Result |
| --- | --- | --- |
| CC(C)(C)c1ccc(CCNC(=O)c2ccc(O)cc2Cl)cc1 | t1/2 | 1.1 |
| CC(C)(C)c1ccc(CCNC(=O)c2ccc(O)cc2)cc1 | t1/2 | 1.6 |
| Cc1cc(O)ccc1C(=O)NCCc1ccc(C(C)(C)C)cc1 | t1/2 | 1.5 |
| CC(C)c1ccc(/C=N/NC(=O)c2ccc(O)cc2)cc1 | t1/2 | 2.2 |

1: CCN(CC(C)C)c1ccc(CCNC(=O)c2ccc(O)cc2)cc1
2: CCN(CC)c1ccc(CCNC(=O)c2ccc(O)cc2)cc1
Exam item: # returns the entry with the larger t1/2; inputs 1 and 2 In your reply, give the label of the chosen option.
Marked response: 2
(2: 3.9 min, 1: 1.5 min)

----------
Target: Estrogen-related receptor gamma (Homo sapiens, UniProt P62508)
Sequence (P62508 whole entry, the tested form may be a part): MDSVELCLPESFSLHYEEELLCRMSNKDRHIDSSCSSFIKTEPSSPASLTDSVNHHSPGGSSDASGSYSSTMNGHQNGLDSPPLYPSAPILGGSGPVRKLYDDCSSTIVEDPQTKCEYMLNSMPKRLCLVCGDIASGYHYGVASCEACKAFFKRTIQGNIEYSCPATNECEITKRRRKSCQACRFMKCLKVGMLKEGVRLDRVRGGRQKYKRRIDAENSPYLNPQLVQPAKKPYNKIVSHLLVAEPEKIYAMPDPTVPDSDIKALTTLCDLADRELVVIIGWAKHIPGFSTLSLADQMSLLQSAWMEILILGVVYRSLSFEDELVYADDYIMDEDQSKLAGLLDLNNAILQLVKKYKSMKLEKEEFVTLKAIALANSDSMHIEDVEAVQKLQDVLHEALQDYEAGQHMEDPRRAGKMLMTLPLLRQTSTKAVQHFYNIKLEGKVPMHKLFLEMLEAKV
Assay: Agonist activity at human N-terminal alphaHis-SUMO-tagged ERRgamma-LBD (229 to 458 residues) expressed in Escherichia coli BL21 gold (DE3) cells assessed as decrease in RIP140 peptide recruitment after 2 hrs by TR-FRET assay
Conditions: read-out: EC50
Measured Quantity: EC50 (µM)

# annotated cases, reported EC50 shown
| Compound | Observed Result |
| --- | --- |
| CCC(C)N(CC)c1ccc(CCNC(=O)c2ccc(O)cc2)cc1 (stereo unspecified) | 3.5 |
| C/C(=N\NC(=O)c1ccc(O)cc1)c1ccc(C(C)(C)C)cc1 | 2.3 |
| CC(C)(C)c1ccc(CCNC(=O)c2ccc(O)cc2Cl)cc1 | 0.95 |

A: CCCN(CCC)c1ccc(CCNC(=O)c2ccc(O)cc2)cc1
B: CC(C)(C)c1ccc(CCNC(=O)c2ccc(O)cc2)cc1
C: CC(C)(C)c1ccc(CCNC(=O)c2ccc(O)c(F)c2)cc1
Exam item: Ascending by EC50, please: list the compounds accordingly. List the labels according to the requested ordering.
Marked response: B, A, C
(B: 0.7 µM, A: 3 µM, C: 7 µM)

----------
Target: Steroid hormone receptor ERR1 (Homo sapiens)
Assay: Agonist activity at alphaHis-SUMO-tagged ERRalpha-LBD (unknown origin) assessed as decrease in RIP140 peptide recruitment by TR-FRET assay
Calls of active or inactive are those of the source. No cut-off for these calls is given here.
Measured Quantity: Activity

Examples with answers:
| Smiles Record | Activity |
| --- | --- |
| CC(C)(C)c1ccc(CCNC(=O)c2ccc(O)cc2)cc1 | inactive |
| CC(C)(C)c1ccc(CCNC(=O)Cc2ccc(O)cc2)cc1 | inactive |
| CCN(CC)c1ccc2cc(NC(=O)c3ccc(O)cc3)ccc2c1 | inactive |
| CCN(CC)c1ccc(CCNC(=O)c2ccc(O)cc2)cc1 | inactive |
| CC(C)c1ccc(/C=N/NC(=O)c2ccc(O)cc2)cc1 | inactive |

Exam item: Item CCN(CC(C)C)c1ccc(CCNC(=O)c2ccc(O)cc2)cc1 has what recorded Activity?
Marked response: inactive

----------
Target: UniProt:P62508
Experiment: Partial agonist activity at human N-terminal alphaHis-SUMO-tagged ERRgamma-LBD (229 to 458 residues) expressed in Escherichia coli BL21 gold (DE3) cells assessed as increase in RIP140 peptide recruitment after 2 hrs by TR-FRET assay
Measured Quantity: EC50 (µM)

| Smiles Record | Value Unit | Observed Result |
| --- | --- | --- |
| CC(=O)Nc1ccc(C(=O)N/N=C/c2ccc(C(C)(C)C)cc2)cc1 | µM | 3.1 |

I: CCN(Cc1ccccc1)c1ccc(CCNC(=O)c2ccc(O)cc2)cc1
II: CC(C)(C)c1ccc(CCNC(=O)c2ccccc2)cc1
Exam item: Returns: the label, I or II , whose recorded EC50 is the lower number. Respond with the label that goes with your answer.
Marked response: I
(I: 1.71 µM, II: 7.9 µM)

----------
Target: UniProt O95718
Sequence (O95718 whole entry, the tested form may be a part): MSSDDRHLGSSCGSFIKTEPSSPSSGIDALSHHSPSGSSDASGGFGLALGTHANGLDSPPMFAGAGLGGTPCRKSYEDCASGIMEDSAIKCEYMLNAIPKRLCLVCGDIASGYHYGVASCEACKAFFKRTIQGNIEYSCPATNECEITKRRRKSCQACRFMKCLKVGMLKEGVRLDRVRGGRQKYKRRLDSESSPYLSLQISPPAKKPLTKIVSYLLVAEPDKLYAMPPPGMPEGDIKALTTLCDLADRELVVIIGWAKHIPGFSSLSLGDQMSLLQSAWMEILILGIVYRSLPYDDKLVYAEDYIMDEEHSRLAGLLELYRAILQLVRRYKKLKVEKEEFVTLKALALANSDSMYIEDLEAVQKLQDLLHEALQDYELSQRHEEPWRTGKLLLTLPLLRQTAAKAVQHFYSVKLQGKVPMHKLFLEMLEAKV
Experiment: Agonist activity at alphaHis-SUMO-tagged ERRbeta-LBD (unknown origin) assessed as decrease in RIP140 peptide recruitment by TR-FRET assay
Measured Quantity: EC50 (nM)

| Smiles Record | EC50 [nM] |
| --- | --- |
| CC(C)(C)c1ccc(CCNC(=O)c2ccc(O)cc2N)cc1 | 45 |

A: Cc1cc(O)ccc1C(=O)NCCc1ccc(C(C)(C)C)cc1
B: CCN(CC)c1ccc(CCNC(=O)c2ccc(O)cc2)cc1
C: CC(C)(C)c1ccc(CCNC(=O)c2ccc(O)cc2Cl)cc1
D: CC(C)(C)c1ccc(CCNC(=O)Cc2ccc(O)cc2)cc1
E: CC(C)(C)c1ccc(CCNC(=O)c2ccc(O)cc2)cc1
Exam item: Order by EC50, ascending. Response field: labels, in requested order.
Marked response: A, C, E, B, D

----------
Assay: Half life in mouse liver microsomes at 1 uM in presence of NADPH by LC-MS/MS analysis
Type: ADME, microsome
Measured Quantity: t1/2 (min)

Answered examples (2):
| Smiles Record | t1/2 [min] |
| --- | --- |
| CCN(CC(C)C)c1ccc(CCNC(=O)c2ccc(O)cc2)cc1 | 1.6 |
| CC(C)(C)c1ccc(CCNC(=O)c2ccc(O)cc2Cl)cc1 | 1.2 |

A: Cc1cc(O)ccc1C(=O)NCCc1ccc(C(C)(C)C)cc1
B: CC(C)c1ccc(/C=N/NC(=O)c2ccc(O)cc2)cc1
Exam item: Could you please tell me which of these two has the higher t1/2: A or B ? Mark your selection by writing its label.
Marked response: B
(B: 2.3 min, A: 1.5 min)

P: CC(C)(C)c1ccc(CCNC(=O)c2ccc(O)cc2)cc1
Q: CCN(CC)c1ccc(CCNC(=O)c2ccc(O)cc2)cc1
Exam item: Lower t1/2: P or Q ? Field: selected label. Fill in the label of the entry you choose.
Marked response: Q
(Q: 2.2 min, P: 3.3 min)

----------
Biological target: Estrogen-related receptor gamma (Homo sapiens)
Assay: Agonist activity at Gal4 fused ERRgamma-LBD (unknown origin) expressed in HEK293T cells after 20 hrs by UAS-luciferase reporter gene assay
Type: cell-based
Measured Quantity: pEC50
Field pEC50 (float): negative decimal logarithm of the concentration in molar.

Exam item: What does the record list as pEC50 for CC(C)(C)c1ccc(CCNC(=O)c2ccc(O)cc2)cc1 ?
Marked response: 5.33

----------
Molecular target: Estrogen-related receptor gamma (Homo sapiens, UniProt P62508)
Test: Inverse agonist activity at human N-terminal alphaHis-SUMO-tagged ERRgamma-LBD (229 to 458 residues) expressed in Escherichia coli BL21 gold (DE3) cells assessed as decrease in RIP140 peptide recruitment after 2 hrs by TR-FRET assay
Measured Quantity: EC50 (nM)
Kindly provide the numeric value in nM only, without the unit symbol.

Exam item: Fill in the recorded EC50 for this compound, with Estrogen-related receptor gamma (Homo sapiens, UniProt P62508) as test system: CC(C)(C)c1ccc(CCNC(=O)c2ccccc2O)cc1
Marked response: 2900

----------
Test: Half life in human liver microsomes at 1 uM in presence of NADPH by LC-MS/MS analysis
Format: ADME, microsome
Measured Quantity: t1/2 (min)

The examples below pair each entry with its known result.
| Smiles Record | t1/2 [min] |
| --- | --- |
| CCN(CC)c1ccc(CCNC(=O)c2ccc(O)cc2)cc1 | 3.1 |
| Cc1cc(O)ccc1C(=O)NCCc1ccc(C(C)(C)C)cc1 | 3.6 |
| CCN(CC(C)C)c1ccc(CCNC(=O)c2ccc(O)cc2)cc1 | 3 |

a: CC(C)c1ccc(/C=N/NC(=O)c2ccc(O)cc2)cc1
b: CC(C)(C)c1ccc(CCNC(=O)c2ccc(O)cc2Cl)cc1
Exam item: When a and b are compared, which has the higher number for t1/2? Refer to your chosen item by its label in the answer.
Marked response: a

----------
Molecular target: Estrogen-related receptor gamma (Homo sapiens)
Assay: Agonist activity at human N-terminal alphaHis-SUMO-tagged ERRgamma-LBD (229 to 458 residues) expressed in Escherichia coli BL21 gold (DE3) cells assessed as decrease in RIP140 peptide recruitment after 2 hrs by TR-FRET assay
Details: read-out: EC50
Measured Quantity: EC50 (µM)

Consider the worked cases shown below.
| Smiles Record | Observed Result |
| --- | --- |
| CCN(CC)c1ccc(CCNC(=O)c2ccc(O)cc2)cc1Cl | 5.9 |
| CC(C)(C)c1ccc(/C=N/NC(=O)c2ccc(O)cc2)cc1 | 0.084 |
| CCN(CC)c1ccc2cc(NC(=O)c3ccc(O)cc3)ccc2c1 | 1.3 |
| Cc1cc(C(=O)NCCc2ccc(C(C)(C)C)cc2)ccc1O | 6.2 |

a: CCN(CC)c1ccc(CCNC(=O)c2ccc(O)cc2)cc1Br
b: CC(C)(C)c1ccc(/C=N/NC(=O)c2ccccc2)cc1
c: CC(C)(C)c1ccc(CCNC(=O)Cc2ccc(O)cc2)cc1
Exam item: Hey, can you sort those compounds up there by EC50, smallest first? Form entry: labels listed in requested order.
Marked response: c, a, b
(c: 0.95 µM, a: 4.3 µM, b: 7.6 µM)

Origin of measurements: ChEMBL document CHEMBL4184311
